- ASSAYED_SYSTEM: T1, human CD138 (syndecan-1), membrane-bound on CD138+ multiple myeloma cell lines (human, UniProt P18827 23-310)
- T1 construct: whole, on cells; also called membrane CD138; cell surface CD138
- T1 sequence (looked up): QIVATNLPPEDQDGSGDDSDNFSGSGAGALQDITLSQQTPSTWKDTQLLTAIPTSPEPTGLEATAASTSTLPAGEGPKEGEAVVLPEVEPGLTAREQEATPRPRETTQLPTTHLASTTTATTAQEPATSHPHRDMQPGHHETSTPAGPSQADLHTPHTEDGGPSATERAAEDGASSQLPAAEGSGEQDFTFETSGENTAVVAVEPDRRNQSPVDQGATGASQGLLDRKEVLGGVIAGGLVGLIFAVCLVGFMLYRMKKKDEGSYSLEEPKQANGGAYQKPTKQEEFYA
- PROTOCOL: flow cytometry on MM1.S, LP-1 and RPMI 8226 cells
MEASUREMENT_TYPE: binding result

humanized anti-CD138 antibody variant 3821 (antibody, human IgG1, V domains shown, also called mAb 3821) VH: QVQLVQSGAEVKKPGSSVKVSCKASGYSFSSYYMHWVRQAPGQGLEWMGTIHPSDSTANYNQKFKGRVTITVDKSTSTAYMELSSLRSEDTAVYYCANFVYWGQGTTVTVSS VL: DIVMTQTPLSLSVTPGQPASISCKSSKSLLYKDGKTYLNWFLQKPGQSPQLLIYVVSTRASGVPDRFSGSGSGTDFTLKISRVEAEDVGVYYCQQLVQYPYTFGQGTKLEIK :: binds
humanized anti-CD138 antibody variant 4321 (antibody, human IgG1, V domains shown, also called mAb 4321) VH: QVQLVQSGAEVKKPGASVKVSCKASGYSFSSYYMHWVRQAPGQGLEWMGTIHPSDSTTNYNQKFQGRVTMTVDTSTRTAYMELSSLRSEDTAVYYCANFVYWGQGTTVTVSS VL: DIVMTQTPLSLSVTPGQPASISCKSSKSLLYKDGKTYLNWFLQKPGQSPQLLIYVVSTRASGVPDRFSGSGSGTDFTLKISRVEAEDVGVYYCQQLVQYPYTFGQGTKLEIK :: binds
humanized anti-CD138 antibody variant 4326 (antibody, human IgG1, V domains shown, also called mAb 4326) VH: QVQLVQSGAEVKKPGASVKVSCKASGYSFSSYYMHWVRQAPGQGLEWMGTIHPSDSTTNYNQKFQGRVTMTVDTSTRTAYMELSSLRSEDTAVYYCANFVYWGQGTTVTVSS VL: DIVMTQSPDSLAVSLGERATINCKSSQSLLYKDGKTYLNWFQQKPGQPPKLLIYVVSTRASGVPDRFSGSGSGTDFTLTISSLQAEDVAVYYCQQLVEYPYTFGQGTKLEIK :: binds
